Where do the numbers come from? From PubChem BioAssay (NCI).

- Test system: MDA-MB-231 breast
- test summary: NCI-60 one-dose screen, 48 h (100 = growth as untreated, 0 = no growth, -100 = all killed)
- measurement context: 10 µM unless noted
The panel holds about 83,000 compounds, 20% with a hit somewhere; the sample as a whole holds those more often.
Each entry gets Not met if its growth stays under 70%, and Met if its growth is 70% or above.

Worked set:
smi=COc1ccc(C2=C(c3cn(C)c4ccccc34)C(=O)OC2)cc1OC discrete_label="Not met"
smi=O=C(Nc1ccc(Cl)c(C(F)(F)F)c1)Nc1ccc(-c2cccnc2)cc1N1CCC(CO)CC1 discrete_label="Not met"
smi=N#C/C(=C(/O)CCCO)c1nc2ccccc2c(=O)[nH]1 discrete_label=Met
smi=CC(C)c1ccc(C(=O)Nc2sc3c(c2C#N)CCC(=O)C3)cc1 discrete_label="Not met"

Here's the next entry for you.
INPUT: Say whether `COC(=O)[C@@H](NC(=O)NC(=O)NC(=O)CI)C(C)C` shows growth of 70% or more.
OUTPUT: Met
